Where these numbers come from: the OligoGym collection

Entries and their sensor-assay potency score (higher = more potent) values follow.
Molecular target: CD1E
Test: pooled miR-30 sensor sort-seq; sequence = guide strand; further: reference of the scale not given here
Conditions: shRNA

Examples from the recorded data:
[
  {
    "Seq text": "ATAACTGGAACAGTGACTGTAA",
    "Target of assay": "CD1E",
    "Meas value": 0.29
  },
  {
    "Seq text": "TATCTGGATAAAACTATGGAAG",
    "Target of assay": "CD1E",
    "Meas value": -1.28
  },
  {
    "Seq text": "TAGGATTGTAGAGCCTGGGGAG",
    "Target of assay": "CD1E",
    "Meas value": -0.471
  }
]

Read the next record carefully.
Exercise: Give the reported sensor-assay potency score (higher = more potent) for this sequence. `TATAACTGGAACAGTGACTGTA`
Solution: 0.739

---

Target: RNPC3
Test: pooled miR-30 sensor sort-seq; sequence = guide strand
Conditions: shRNA
Each record here notes measured sensor-assay potency score (higher = more potent).

For orientation, consider the following solved cases.
[
  {
    "Seq text": "TCGAGCAAACTGAACCACCATG",
    "Meas value": -1.27
  },
  {
    "Seq text": "TTCTTTATCATCTTCGACAGGG",
    "Meas value": 0.314
  },
  {
    "Seq text": "TTCTTGAACATGTTTAGCTAAA",
    "Meas value": -1.09
  },
  {
    "Seq text": "TTAAATACACTTTCAAAGCTGT",
    "Meas value": 0.272
  }
]

Exercise: Report its sensor-assay potency score (higher = more potent) with RNPC3 as the test system: `TATTGTTTTAGGTCTTTTGGGC`
Solution: -0.105

Exercise: State the measured sensor-assay potency score (higher = more potent) (RNPC3) of `TTTGCTAGGATTGTGCTGGAAG`
Solution: -0.549

Exercise: State sensor-assay potency score (higher = more potent) (RNPC3) of `TATATCAAACATGATCCGCTGT` .
Solution: 0.81

Exercise: Given `TTGGTCTAGCAGATCGAGCAAA` , report its sensor-assay potency score (higher = more potent) on RNPC3.
Solution: -1.03

Exercise: Report value: sensor-assay potency score (higher = more potent), system: RNPC3, sequence: `TTCCTCACAATTTTGTTCCTTT`
Solution: 1.11

---

Molecular target: IBTK
Experiment: pooled miR-30 sensor sort-seq; sequence = guide strand
Settings: shRNA
Property: sensor-assay potency score (higher = more potent); scope: individual sequences
Give a plain numeric answer without units written out.

[
  {
    "Seq text": "TTGAGCTTGATTACTTTTGTAA",
    "Meas value": 0.24
  },
  {
    "Seq text": "TAAGCCAATCTAACACTCCTTT",
    "Meas value": 0.0727
  },
  {
    "Seq text": "TCTTCTTGCACTGATAGTCTGC",
    "Meas value": -0.142
  },
  {
    "Seq text": "TAATACAACAGTATGATCCTTA",
    "Meas value": 1.02
  }
]

Exercise: Read off the recorded sensor-assay potency score (higher = more potent) for `TTTGCTTTCTTGAACATAGTTT`
Solution: -0.494

---

Target: GPT2
Test: pooled miR-30 sensor sort-seq; sequence = guide strand
Conditions: shRNA
Kind request: treat -0.5 as inclusive, so sensor-assay potency score (higher = more potent) at -0.5 or higher is Y, anything lower is N.

[
  {
    "Seq text": "TTGGTTAAACAGGTCTTCCGTC",
    "Label value": "Y"
  },
  {
    "Seq text": "TTCAGGATCGTAGAAATGCCGT",
    "Label value": "N"
  },
  {
    "Seq text": "TTCACCTTCTGCAGCACCGTTT",
    "Label value": "N"
  },
  {
    "Seq text": "TACAGCACCTTCTTGAAGGAGT",
    "Label value": "Y"
  }
]

Turning to the following sequence.
Exercise: Does sensor-assay potency score (higher = more potent) meet or surpass -0.5 for `TTAGCATCTTCTGGGAAGCTGG` ?
Solution: N
